- subject of test: DabiOBP5 (Dioryctria abietella)
- Sequence (A0A8E6HS34 19-139): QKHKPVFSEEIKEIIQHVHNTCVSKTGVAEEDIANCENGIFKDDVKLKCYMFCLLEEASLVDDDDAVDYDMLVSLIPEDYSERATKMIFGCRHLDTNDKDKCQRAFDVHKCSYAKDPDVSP
- measurement protocol: Competitive fluorescence binding assay with 1-NPN probe, recombinant DabiOBP5
- experimental parameters: read-out: OBP5 Ki (dissociation constant); competitive displacement of 1-NPN; three replicates; mean ± SE; listed as chlorpyrifos
observation type: Ki

>>> print(df.to_string())
                        smiles_repr  recorded_result
0  CCOP(=S)(OCC)Oc1nc(Cl)c(Cl)cc1Cl          < 13 µM

====

# key: entry, value: inhibition at 20 µM
- subject of test: UniProt A0A8E6HS34
- measurement protocol: Competitive fluorescence binding assay with 1-NPN probe, recombinant DabiOBP5
- experimental parameters: ligand at 20 μM; DabiOBP5/1-NPN each 2 μM; Tris-HCl pH 7.4; NB = no binding; read-out: OBP5 F.D. (%) fluorescence displacement percent
observation type: inhibition at 20 µM (%)

In [3]: df
Out[3]:
                                    compound  recorded_result
 0                                  CCCCCCCO             39.3
 1                            CCCCCCCCCCCC=O             30.6
 2         CC(C)=CCCC(C)O (stereo not drawn)             41.4
 3       CCCCCCCCCCCC(=O)OC [Methyl laurate]             7.25
 4      O=C(NC(=O)c1c(F)cccc1F)Nc1ccc(Cl)cc1             21.4
 5                              C=CCCCCCCCCC             17.4
 6                                  CCCCCCCC             27.9
 7                               CCCCCCCCC=O             31.5
 8               CCCOC(C)=O [Propyl acetate]             31.4
 9                              O=CCc1ccccc1             29.1
10                               CCCCCC(C)=O             36.5
11         CCCCCCCCCCOC(C)=O [Decyl acetate]             26.2
12                                   CCCCCCC             31.4
13                               CCCCCCCCCCO             31.4
14              CCCC(=O)OCC [Ethyl butyrate]               32
15  C=CC(C)(O)CCC=C(C)CCC=C(C)C (mixture of isomers)             34.6
16  O=C1CCC[C@@H]2[C@H]3CCCN4CCC[C@@H](CN12)[C@@H]34               29
17                             CCCCCCCCCCC=O             27.8
18               CC(=O)/C=C/C1=C(C)CCCC1(C)C             59.5
19           CCCCCCCOC(C)=O [Heptyl acetate]               41
20                 CC1=CC[C@@H](C(C)(C)O)CC1             33.9
21                       CC(C)=CCC/C(C)=C/CO             32.9
22                      COc1cc(C=O)cc(OC)c1O             38.5
23                        CC1=CCC(C(C)C)=CC1             28.2
24                                CCCCC=CCCO             25.1
25                             CCCCCCCCCCCCC             5.52
26                                CCCCCCCCCO             39.6
